assay: xn = mol fraction of the nth substance listed; details: 333.15 K; 101.3 kPa; x1 = 0.1
Listed here are molecules together with their documented viscosity.
Please reply with the bare figure in mPa·s and do not write the unit itself.

Sample answers from the record:
| molecule | viscosity (mPa·s) |
| --- | --- |
| C=C[n+]1ccn(CCCC)c1.N[C@@H](CO)C(=O)[O-] + O | 4.82 |
| C=C[n+]1ccn(CCCC)c1.NCCCC[C@H](N)C(=O)[O-] + O | 1.58 |
| C=C[n+]1ccn(CCCC)c1.N[C@@H](Cc1c[nH]cn1)C(=O)[O-] + O | 1.46 |

// below: viscosity requested for another molecule
Query: Give recorded viscosity. C=Cn1cc[n+](CCCC)c1.NCC(=O)[O-] + O
Reply: 5.87

---

test: xn = mol fraction of the nth substance listed; conditions: 313.15 K; 101.3 kPa; x1 = 0.1
Listed here are compounds together with their documented electrical conductivity.

| compound | electrical conductivity |
| --- | --- |
| C=C[n+]1ccn(CCCC)c1.NCCCC[C@H](N)C(=O)[O-] + O | 2.36 S/m |
| C=Cn1cc[n+](CCCC)c1.NCC(=O)[O-] + O | 1.19 S/m |
| C=C[n+]1ccn(CCCC)c1.N[C@@H](Cc1c[nH]cn1)C(=O)[O-] + O | 3.12 S/m |

Query: Give recorded electrical conductivity. C=C[n+]1ccn(CCCC)c1.N[C@@H](CO)C(=O)[O-] + O
Reply: 1.61 S/m

---

Listed here are molecules together with their documented viscosity.
test: xn = mol fraction of the nth substance listed; details: 323.15 K; 101.3 kPa; x1 = 0.3
Please reply with the bare figure in mPa·s and do not write the unit itself.

Query: Give recorded viscosity. C=C[n+]1ccn(CCCC)c1.N[C@@H](Cc1c[nH]cn1)C(=O)[O-] + O
Reply: 4.81

---

test: xn = mol fraction of the nth substance listed; settings: 323.15 K; 101.3 kPa; x1 = 0.9
Listed here are compounds together with their documented electrical conductivity.
Please reply with the bare figure in S/m and do not write the unit itself.

| compound | electrical conductivity, S/m |
| --- | --- |
| C=C[n+]1ccn(CCCC)c1.N[C@@H](CO)C(=O)[O-] + O | 1.69 |
| C=Cn1cc[n+](CCCC)c1.NCC(=O)[O-] + O | 1.2 |
| C=C[n+]1ccn(CCCC)c1.N[C@@H](Cc1c[nH]cn1)C(=O)[O-] + O | 1.64 |

// below: electrical conductivity requested for another compound
Query: Give recorded electrical conductivity. C=C[n+]1ccn(CCCC)c1.NCCCC[C@H](N)C(=O)[O-] + O
Reply: 1.62

---

Listed here are compounds together with their documented viscosity.
test: xn = mol fraction of the nth substance listed; conditions: 353.15 K; 101.3 kPa; x1 = 0.7
Please reply with the bare figure in mPa·s and do not write the unit itself.

Sample answers from the record:
| compound | attribute measured | unit label | reading |
| --- | --- | --- | --- |
| C=C[n+]1ccn(CCCC)c1.N[C@@H](CO)C(=O)[O-] + O | viscosity | mPa·s | 385 |
| C=C[n+]1ccn(CCCC)c1.N[C@@H](Cc1c[nH]cn1)C(=O)[O-] + O | viscosity | mPa·s | 29 |
| C=C[n+]1ccn(CCCC)c1.NCCCC[C@H](N)C(=O)[O-] + O | viscosity | mPa·s | 33.87 |

Query: Give recorded viscosity. C=Cn1cc[n+](CCCC)c1.NCC(=O)[O-] + O
Reply: 104.8

---

assay: xn = mol fraction of the nth substance listed; details: 323.15 K; 101.3 kPa; x1 = 0.1
attribute measured: electrical conductivity (S/m)
Please reply with the bare figure in S/m and do not write the unit itself.

| molecule | attribute measured | reading |
| --- | --- | --- |
| C=C[n+]1ccn(CCCC)c1.NCCCC[C@H](N)C(=O)[O-] + O | electrical conductivity | 2.78 |
| C=C[n+]1ccn(CCCC)c1.N[C@@H](Cc1c[nH]cn1)C(=O)[O-] + O | electrical conductivity | 3.58 |
| C=Cn1cc[n+](CCCC)c1.NCC(=O)[O-] + O | electrical conductivity | 1.35 |

// below: electrical conductivity requested for another molecule
Query: Give recorded electrical conductivity. C=C[n+]1ccn(CCCC)c1.N[C@@H](CO)C(=O)[O-] + O
Reply: 1.9

---

Listed here are compounds together with their documented electrical conductivity.
test: xn = mol fraction of the nth substance listed; conditions: 323.15 K; 101.3 kPa; x1 = 0.3
Please reply with the bare figure in S/m and do not write the unit itself.

Sample answers from the record:
| compound | unit label | reading |
| --- | --- | --- |
| C=C[n+]1ccn(CCCC)c1.N[C@@H](CO)C(=O)[O-] + O | S/m | 3.9 |
| C=C[n+]1ccn(CCCC)c1.N[C@@H](Cc1c[nH]cn1)C(=O)[O-] + O | S/m | 4.7 |
| C=C[n+]1ccn(CCCC)c1.NCCCC[C@H](N)C(=O)[O-] + O | S/m | 3.56 |

// below: electrical conductivity requested for another compound
Query: Give recorded electrical conductivity. C=Cn1cc[n+](CCCC)c1.NCC(=O)[O-] + O
Reply: 2.63

---

assay: xn = mol fraction of the nth substance listed; conditions: 293.15 K; 101.3 kPa; x1 = 0.1
Listed here are compounds together with their documented viscosity.
Please reply with the bare figure in mPa·s and do not write the unit itself.

Query: Give recorded viscosity. C=C[n+]1ccn(CCCC)c1.N[C@@H](CO)C(=O)[O-] + O
Reply: 6.68

---

assay: xn = mol fraction of the nth substance listed; conditions: 308.15 K; 101.3 kPa; x1 = 0.5
attribute measured: electrical conductivity (S/m)
Please reply with the bare figure in S/m and do not write the unit itself.

| compound | unit label | electrical conductivity |
| --- | --- | --- |
| C=C[n+]1ccn(CCCC)c1.N[C@@H](CO)C(=O)[O-] + O | S/m | 3.44 |
| C=Cn1cc[n+](CCCC)c1.NCC(=O)[O-] + O | S/m | 2.95 |
| C=C[n+]1ccn(CCCC)c1.NCCCC[C@H](N)C(=O)[O-] + O | S/m | 3.12 |

Query: Give recorded electrical conductivity. C=C[n+]1ccn(CCCC)c1.N[C@@H](Cc1c[nH]cn1)C(=O)[O-] + O
Reply: 3.85

---

assay: xn = mol fraction of the nth substance listed; settings: 293.15 K; 101.3 kPa; x1 = 0.7
attribute measured: viscosity (mPa·s)
Please reply with the bare figure in mPa·s and do not write the unit itself.

Sample answers from the record:
| compound | reading |
| --- | --- |
| C=C[n+]1ccn(CCCC)c1.N[C@@H](CO)C(=O)[O-] + O | 720 |
| C=C[n+]1ccn(CCCC)c1.NCCCC[C@H](N)C(=O)[O-] + O | 95.3 |
| C=Cn1cc[n+](CCCC)c1.NCC(=O)[O-] + O | 403 |

Query: Give recorded viscosity. C=C[n+]1ccn(CCCC)c1.N[C@@H](Cc1c[nH]cn1)C(=O)[O-] + O
Reply: 92.2

---

Listed here are compounds together with their documented electrical conductivity.
test: xn = mol fraction of the nth substance listed; conditions: 318.15 K; 101.3 kPa; x1 = 0.7
Please reply with the bare figure in S/m and do not write the unit itself.

Query: Give recorded electrical conductivity. C=C[n+]1ccn(CCCC)c1.N[C@@H](CO)C(=O)[O-] + O
Reply: 3.43

Query: Give recorded electrical conductivity. C=C[n+]1ccn(CCCC)c1.N[C@@H](Cc1c[nH]cn1)C(=O)[O-] + O
Reply: 3.6

Query: Give recorded electrical conductivity. C=Cn1cc[n+](CCCC)c1.NCC(=O)[O-] + O
Reply: 2.87

Query: Give recorded electrical conductivity. C=C[n+]1ccn(CCCC)c1.NCCCC[C@H](N)C(=O)[O-] + O
Reply: 2.95

---

experiment: xn = mol fraction of the nth substance listed; settings: 318.15 K; 101.3 kPa; x1 = 0.9
attribute measured: electrical conductivity (S/m)
Please reply with the bare figure in S/m and do not write the unit itself.

Sample answers from the record:
| molecule | unit label | reading |
| --- | --- | --- |
| C=C[n+]1ccn(CCCC)c1.N[C@@H](CO)C(=O)[O-] + O | S/m | 1.42 |
| C=Cn1cc[n+](CCCC)c1.NCC(=O)[O-] + O | S/m | 0.89 |
| C=C[n+]1ccn(CCCC)c1.NCCCC[C@H](N)C(=O)[O-] + O | S/m | 1.45 |

Query: Give recorded electrical conductivity. C=C[n+]1ccn(CCCC)c1.N[C@@H](Cc1c[nH]cn1)C(=O)[O-] + O
Reply: 1.27

---

experiment: xn = mol fraction of the nth substance listed; settings: 318.15 K; 101.3 kPa; x1 = 0.1
Listed here are compounds together with their documented electrical conductivity.
Please reply with the bare figure in S/m and do not write the unit itself.

Sample answers from the record:
| compound | unit label | electrical conductivity |
| --- | --- | --- |
| C=C[n+]1ccn(CCCC)c1.N[C@@H](Cc1c[nH]cn1)C(=O)[O-] + O | S/m | 3.32 |
| C=C[n+]1ccn(CCCC)c1.N[C@@H](CO)C(=O)[O-] + O | S/m | 1.78 |
| C=Cn1cc[n+](CCCC)c1.NCC(=O)[O-] + O | S/m | 1.29 |

// below: electrical conductivity requested for another compound
Query: Give recorded electrical conductivity. C=C[n+]1ccn(CCCC)c1.NCCCC[C@H](N)C(=O)[O-] + O
Reply: 2.51

Where do these numbers come from? They come from a compilation of properties of binary mixtures (doi:10.1016/j.molliq.2022.119944).
